# assay overview: LNP size and polydispersity index (PDI) by dynamic light scattering
# Assay type: physicochemical
# measurement setup: LNP with mRNA (SEQ ID NO: 2); in nm (unit assumed)
Size strictly less than 100 = 1.0. Otherwise 0.0.

INSERT INTO results (compound, qualitative_label) VALUES
  ('CCCCCCCCC(CCCCCCCC)OC(=O)CCCCCCCN(CCCCCCCCOC(=O)C(CCCCCC)CCCCCCCC)CCCOC(=O)NCCN1CCCCCC1 (centres unmarked)', 0.0),
  ('CCCCC/C=C\C/C=C\CCCCCCCCN(CCCCCC(=O)OCCCCCCCCCCC)CCOC(=O)NCc1ncc[nH]1', 1.0),
  ('CCCCCCCCCCC(CCCCCCCC)COC(=O)CCCCCN(CCCCCC(=O)OCC(CCCCCCCC)CCCCCCCCCC)CCOC(=O)NCCN1CCCC1 (centres unmarked)', 1.0),
  ('CCCCCCCCC(CCCCCC)C(=O)OCCCCCCCCN(CCCCCCCCOC(=O)C(CCCCCC)CCCCCCCC)CCCOC(=O)NCCN1CCCCCC1 (centres unmarked)', 1.0),
  ('CCCCCCCCCCC(CCCCCCCC)COC(=O)CCCCCN(CCCCCCCCOC(=O)C(CCCCCC)CCCCCCCC)CCOC(=O)NCCN(C)C (centres unmarked)', 1.0);
